So I've got IC50 readings for UniProt P05067, take a look.
Sequence (P05067 672-713 limits assumed): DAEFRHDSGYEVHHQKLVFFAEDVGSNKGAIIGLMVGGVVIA
MEASURED ATTRIBUTE: IC50 (nM)

Example results:
[
  {
    "COMPOUND": "O=C(C=CNc1ccc(F)cc1)c1ccccc1 (mixture of isomers)",
    "MEASURED ATTRIBUTE": "IC50",
    "ENDPOINT UNIT": "nM",
    "REPORTED MEASUREMENT": 26
  },
  {
    "COMPOUND": "CN(C)c1ccc(NC=CC(=O)c2ccc(F)cc2)cc1 (mixture of isomers)",
    "MEASURED ATTRIBUTE": "IC50",
    "ENDPOINT UNIT": "nM",
    "REPORTED MEASUREMENT": 5
  },
  {
    "COMPOUND": "COc1ccc(NC=CC(=O)c2ccc(F)cc2)cc1 (mixture of isomers)",
    "MEASURED ATTRIBUTE": "IC50",
    "ENDPOINT UNIT": "nM",
    "REPORTED MEASUREMENT": 400
  },
  {
    "COMPOUND": "O=C(C=CNc1ccc(OCF)cc1)c1ccccc1 (mixture of isomers)",
    "MEASURED ATTRIBUTE": "IC50",
    "ENDPOINT UNIT": "nM",
    "REPORTED MEASUREMENT": 9
  }
]

(A) O=C(C=CNc1ccc(OCCF)cc1)c1ccc(-c2ccccc2)cc1 (mixture of isomers)
(B) COc1ccc(NC=CC(=O)c2ccc(F)nc2)cc1 (mixture of isomers)
(C) O=C(C=CNc1ccc(OCCF)cc1)c1ccc(Br)cc1 (mixture of isomers)
Exercise: Reorder the items by IC50, least to greatest. Sort the labels as requested; that list is your answer.
Key: C, B, A

(a) O=C(/C=C\Nc1ccc(OCCCF)cc1)c1ccccc1
(b) O=C(C=CNc1ccc(F)c(Br)c1)c1ccccc1 (mixture of isomers)
Exercise: Form field 'greater IC50' accepts a or b ; which applies? Reply briefly: the label of your chosen item.
Key: b
(b: 46 nM, a: 18 nM)

(I) CN(C)c1ccc(NC=CC(=O)c2ccc(F)nc2)cc1 (mixture of isomers)
(II) O=C(C=CNc1ccc(OCCF)cc1)c1ccccc1 (mixture of isomers)
(III) CN(C)c1ccc(NC=CC(=O)c2ccc(F)c(C(F)(F)F)c2)cc1 (mixture of isomers)
Exercise: Reorder the items by IC50, least to greatest. Sort the labels as requested; that list is your answer.
Key: I, II, III
(I: 4 nM, II: 17 nM, III: 258 nM)
